assay: Drug uptake in Rimonabant pretreated Sprague-Dawley rat CB1 rich frontal cerebral cortex at […], iv after 8 hrs
Assay type: ADME, organism-based
Design: route intravenous
protocol conditions: read-out: Drug uptake
assay endpoint: concentration at 8 h (ng/g)
Write the number in ng/g without appending the unit.

concentration at 8 h lookup needed for `COc1cccc([C@H]2C[C@@H](N[C@H](C)c3ccc(F)cc3)C(=O)N2c2ccc(C(F)(F)F)cc2)c1` , thanks. 0.8

----------
assay: Drug uptake in Rimonabant pretreated Sprague-Dawley rat CB1 rich frontal cerebral cortex at […], iv after 0.25 hrs
Type: ADME, organism-based
Set-up: route intravenous
protocol conditions: read-out: Drug uptake
Readings of concentration at 0.25 h for the listed compounds
Write the number in ng/g without appending the unit.

smiles code | measurement units | value
C[C@@H](N[C@@H]1C[C@H](c2cccc(OCF)c2)N(c2ccc(C(F)(F)F)cc2)C1=O)c1ccccc1 | ng/g | 9.7
COc1cccc([C@H]2C[C@@H](N[C@H](C)c3ccccc3)C(=O)N2c2ccc(C(F)(F)F)cc2)c1 | ng/g | 11.5
C[C@@H](N[C@@H]1C[C@H](c2cccc(OCCF)c2)N(c2ccc(C(F)(F)F)cc2)C1=O)c1ccccc1 | ng/g | 6.5

concentration at 0.25 h lookup needed for `COc1cccc([C@H]2C[C@@H](N[C@H](C)c3ccc(F)cc3)C(=O)N2c2ccc(C(F)(F)F)cc2)c1` , thanks. 17.3

----------
assay: Drug uptake in Sprague-Dawley rat frontal cerebral cortex at 30 μg/kg, iv after 0.25 hrs
assay endpoint: concentration at 0.25 h (ng/g)
Write the number in ng/g without appending the unit.

smiles code | measurement units | concentration at 0.25 h
COc1cccc([C@H]2C[C@@H](N[C@H](C)c3ccccc3)C(=O)N2c2ccc(C(F)(F)F)cc2)c1 | ng/g | 39

Could you now look at the following molecule, please?
concentration at 0.25 h lookup needed for `C[C@@H](N[C@@H]1C[C@H](c2cccc(OCCF)c2)N(c2ccc(C(F)(F)F)cc2)C1=O)c1ccccc1` , thanks. 22

----------
assay: Drug uptake in Sprague-Dawley rat frontal cerebral cortex at 30 μg/kg, iv after 8 hrs
assay endpoint: concentration at 8 h (ng/g)
Write the number in ng/g without appending the unit.

Field: example entries. Status: answers known.
compound | assay endpoint | value
COc1cccc([C@H]2C[C@@H](N[C@H](C)c3ccccc3)C(=O)N2c2ccc(C(F)(F)F)cc2)c1 [MEPPEP] | concentration at 8 h | 8.5
C[C@@H](N[C@@H]1C[C@H](c2cccc(OCF)c2)N(c2ccc(C(F)(F)F)cc2)C1=O)c1ccccc1 | concentration at 8 h | 8.2
C[C@@H](N[C@@H]1C[C@H](c2cccc(OCCF)c2)N(c2ccc(C(F)(F)F)cc2)C1=O)c1ccccc1 | concentration at 8 h | 0.7

concentration at 8 h lookup needed for `COc1cccc([C@H]2C[C@@H](N[C@H](C)c3ccc(F)cc3)C(=O)N2c2ccc(C(F)(F)F)cc2)c1` , thanks. 10.5

----------
assay: Drug uptake in Sprague-Dawley rat frontal cerebral cortex at 30 μg/kg, iv after 0.5 hrs
assay endpoint: concentration at 0.5 h (ng/g)
Write the number in ng/g without appending the unit.

smiles code | measurement units | concentration at 0.5 h
COc1cccc([C@H]2C[C@@H](N[C@H](C)c3ccc(F)cc3)C(=O)N2c2ccc(C(F)(F)F)cc2)c1 | ng/g | 48

Could you now look at the following compound, please?
concentration at 0.5 h lookup needed for `C[C@@H](N[C@@H]1C[C@H](c2cccc(OCF)c2)N(c2ccc(C(F)(F)F)cc2)C1=O)c1ccccc1` , thanks. 39.3

meta.source: ChEMBL document CHEMBL1140137
